# Tested on: Trypanosoma cruzi
# assay_notes: Trypanocidal activity against Trypanosoma cruzi Tulahuen 2 epimastigotes at 25 uM after 5 days
# Format: functional
# condition_label: Tulahuen 2, 120 h
Can you tell me inhibition at 25 µM for the items I'm about to list?
Numeric answer only, unit % assumed.

Request: Consider the compound CC(C)C(=O)c1c(C(F)(F)F)[n+]([O-])c2cc(N3CCOCC3)c(N3CCOCC3)cc2[n+]1[O-] and give its measured inhibition at 25 µM.
Response: 66.3

Request: For the compound shown here, O=C(Cn1ccnc1[N+](=O)[O-])NCc1ccccc1 [BENZNIDAZOLE] , give the reported inhibition at 25 µM.
Response: 100

Request: What does the data say about its inhibition at 25 µM? Entry: O=C(c1ccc(F)cc1)c1c(C(F)(F)F)[n+]([O-])c2cc(Cl)c(Cl)cc2[n+]1[O-]
Response: 89.3

Request: Sample O=C(c1ccc(F)cc1)c1c(C(F)(F)F)[n+]([O-])c2ccc(Cl)cc2[n+]1[O-] — what was its inhibition at 25 µM?
Response: 86.1

Request: Would you kindly share the measured inhibition at 25 µM for CC(=O)c1c(C(F)(F)F)[n+]([O-])c2cc(N3CCCCC3)c(N3CCCCC3)cc2[n+]1[O-] ?
Response: 100

Request: Quick one: inhibition at 25 µM for CC(=O)c1c(C(F)(F)F)[n+]([O-])c2cc(F)c(N3CCCCC3)cc2[n+]1[O-] ?
Response: 96.9

Request: Form field: reported inhibition at 25 µM of CC(C)C(=O)c1c(C(F)(F)F)[n+]([O-])c2cc(N(C)C)c(N3CCOCC3)cc2[n+]1[O-]
Response: 86

Request: Which inhibition at 25 µM is reported for this compound? CC(=O)c1c(C(F)(F)F)[n+]([O-])c2cc(F)c(N3CCC(O)CC3)cc2[n+]1[O-]
Response: 84.9

====

Kindly state inhibition at 25 µM for each of the entries shown.
# Tested on: Trypanosoma cruzi
# assay_notes: Trypanocidal activity against Trypanosoma cruzi Tulahuen 2 epimastigotes at 25 uM after 5 days
# Format: functional
# condition_label: Tulahuen 2, 120 h
Record the value in %, omitting the unit from your answer.

Request: Field request: inhibition at 25 µM | item: CCOC(=O)c1c(C(F)(F)F)nc2cc(Cl)c(N3CCOCC3)cc2[n+]1[O-]
Response: 54.6

Request: Dear colleague, I am looking for the recorded inhibition at 25 µM of the following molecule: CC(=O)c1c(C(F)(F)F)[n+]([O-])c2cc(F)c(N3CCSCC3)cc2[n+]1[O-]
Response: 83.4

Request: Consider the molecule shown here: CC(=O)c1c(C(F)(F)F)[n+]([O-])c2cc(F)c(N3CCOCC3)cc2[n+]1[O-] What is its recorded inhibition at 25 µM?
Response: 100

Request: Reported inhibition at 25 µM, molecule CC1CS(=O)(=O)CCN1/N=C/c1ccc([N+](=O)[O-])o1 (centres undefined) : ____
Response: 100

Request: Quick one: inhibition at 25 µM for O=C(c1ccco1)c1c(C(F)(F)F)nc2cc(Cl)c(N3CCOCC3)cc2[n+]1[O-] ?
Response: 91.7

Request: Please give the measured inhibition at 25 µM for this molecule: O=C(c1ccc(F)cc1)c1c(C(F)(F)F)[n+]([O-])c2ccc(F)cc2[n+]1[O-]
Response: 95.6

Request: Please report the recorded inhibition at 25 µM for CC(=O)c1c(C(F)(F)F)[n+]([O-])c2cc(N3CCC(O)CC3)c(N3CCC(O)CC3)cc2[n+]1[O-] .
Response: 15.7

Request: Given the molecule CC(=O)c1c(C(F)(F)F)[n+]([O-])c2cc(F)c(N3CCC(N4CCOCC4)CC3)cc2[n+]1[O-] , what is its reported inhibition at 25 µM?
Response: 93.4

Request: Recorded inhibition at 25 µM for O=C(c1ccc(F)cc1)c1c(C(F)(F)F)[n+]([O-])c2cc(F)c(F)cc2[n+]1[O-] , please?
Response: 91.8

Data origin: ChEMBL document CHEMBL3751782
